Provenance of the data: PubChem BioAssay AID618

assay: inhibitors of MT1-MMP promoter transcription, cell-based, luciferase reporter, luminescence (AID 618); details: MT1-MMP promoter luciferase reporter cells;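 further: actives suppress MT1-MMP promoter-driven transcription so potencies describe inhibitors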
The whole screen tested about 87,000 compounds, of which about 540 (0.62%) were called active. How the calls were made is not given here. This is one part of a sample in which actives are shown more often than they occur. Potency and affinity values are given separately.
Labels: active, inactive

O=C(CSc1ccccc1)Nc1cccnc1 :: inactive
CCc1cccc(CC)c1NC(=O)CN1CC(C)SC1=NC1CCCCC1 (stereo unspecified) :: inactive
COc1ccc(N/C=C\C(=O)c2ccc3c(c2)OCO3)cc1 :: inactive
Cc1nc2ccc(N)cc2s1 :: inactive
CCN(CC)C(=O)C1CCCN(Cc2cccc(F)c2)C1 (stereo unspecified) :: inactive
Cc1c(N/C=C/C(=O)c2ccc(Cl)cc2)c(=O)n(-c2ccccc2)n1C :: inactive
Cc1ccc(NC(=O)CN2CC(C)SC2=NC2CCCCC2)cc1 (stereo unspecified) :: active
CCOc1ccccc1CNC(=O)C1CCCN(c2nc3ccccc3o2)C1 (stereo unspecified) :: inactive
O=c1[nH]nc(Cc2ccc(Cl)cc2)c2ccccc12 :: inactive
CC1CCCN(S(=O)(=O)c2ccc(NC(=O)CN3CCN(C)CC3)cc2)C1 (stereo unspecified) :: inactive
Nc1cccc(-c2nc3ccccc3s2)c1 :: inactive
Cc1cc(N/C=C/C(=O)c2ccc(Br)cc2)no1 :: inactive
Cc1nc2ccccc2c(=O)n1C1CCCCCC1 :: inactive
Cc1nc(-c2cccc(N)c2)cs1 :: inactive
O=c1c2ccccc2nc2c3ccccc3c3nncn3n12 :: inactive
c1ccc(COc2ccc(OCCn3cncn3)cc2)cc1 :: inactive
Cc1nnc(SCC(=O)Nc2sc3c(c2C#N)CCCC3)[nH]c1=O :: inactive
CCCNC(=O)c1oc2ccc3c(c2c1C)C(=O)CC(C)(C)O3 :: inactive
Cc1ccc(C(=O)NCc2cccs2)cc1S(=O)(=O)N1CCCCC1 :: inactive
Cc1ccc2c(c1)-c1ccccc1S(=O)(=O)N2 :: inactive
Cc1cccc(NC(=O)CN2C(=O)COc3ccc(Cl)cc32)c1 :: inactive
CSc1nc2sc3c(c2c(=O)n1C)CCC(C)C3 (stereo unspecified) :: inactive
C=CCNc1nc(N(c2ccccc2)c2ccccc2)nc(-n2ccnc2)n1 :: inactive
Cc1ccc(NC(=O)c2cc(C)on2)cc1 :: inactive
Nc1ccc2c(c1)-c1ccccc1S(=O)(=O)N2 :: inactive
Nc1ccc(O)c(-c2nc3ccccc3s2)c1 :: inactive
